Test: Particle size and polydispersity of LNP containing pro-drug (dynamic light scattering)
Format: physicochemical
Conditions: LNP containing 10 mol % conjugate; primary PC-lipid DMPC
measure: Polydispersity index (PDI)
Answers are plain numbers.

Working through the 4 compounds below one at a time, give Polydispersity index (PDI) for each.
1. CCCCCC[C@H](C/C=C\CCCCCCCCOC(=O)CCC(=O)OCC(=O)[C@@]1(O)[C@H](C)C[C@H]2[C@@H]3CCC4=CC(=O)C=C[C@]4(C)[C@@]3(F)[C@@H](O)C[C@@]21C)OC(C)=O
2. CCCCCC[C@H](C/C=C\CCCCCCCCOC(=O)CCC(=O)OCC(=O)[C@@]1(O)[C@H](C)C[C@H]2[C@@H]3CCC4=CC(=O)C=C[C@]4(C)[C@@]3(F)[C@@H](O)C[C@@]21C)OC(=O)CCCCC
3. CCCCCCCCCCCC(=O)O[C@@H](C/C=C\CCCCCCCCOC(=O)CCC(=O)OCC(=O)[C@@]1(O)[C@H](C)C[C@H]2[C@@H]3CCC4=CC(=O)C=C[C@]4(C)[C@@]3(F)[C@@H](O)C[C@@]21C)CCCCCC
4. CC/C=C\C/C=C\C/C=C\CCCCCCCC(=O)O[C@@H](C/C=C\CCCCCCCCOC(=O)CCC(=O)OCC(=O)[C@@]1(O)[C@H](C)C[C@H]2[C@@H]3CCC4=CC(=O)C=C[C@]4(C)[C@@]3(F)[C@@H](O)C[C@@]21C)CCCCCC

Key:
[0.02, 0.02, 0.04, 0.05]

----------
Assay: Particle size and polydispersity of LNP containing pro-drug (dynamic light scattering)
Type: physicochemical
Settings: LNP; pro-drug concentration 10 %
measure: Size (nm)
I'd appreciate it if you included the unit after the number.

A selection of reference data follows.
1) CCCCC/C=C\C/C=C\CCCCCCCC(=O)O[C@@H](C/C=C\CCCCCCCCOC(=O)CC/C(C)=C/Cc1c(O)c2c(c(C)c1OC)COC2=O)CCCCCC | 41 nm
2) CCCCCC[C@H](C/C=C\CCCCCCCCOC(=O)c1ccccc1OC(C)=O)OC(=O)CCCCC | 46 nm
3) CCCCCC[C@H](C/C=C\CCCCCCCCOC(=O)CC/C(C)=C/Cc1c(O)c2c(c(C)c1OC)COC2=O)OC(=O)CCCCC | 42 nm

Shift focus to the following entry.
Exercise: Query (compound): "CCCCC/C=C\C/C=C\CCCCCCCC(=O)O[C@@H](C/C=C\CCCCCCCCOC(=O)c1ccccc1OC(C)=O)CCCCCC" ; field requested: Size (nm)
Key: 44 nm

----------
Assay: Particle size and polydispersity of LNP containing pro-drug (dynamic light scattering)
Type: physicochemical
Details: LNP; pro-drug concentration 10 %
measure: PdI
Answers are plain numbers.

Recorded results for 2 compounds are shown here.
1. CCCCC/C=C\C/C=C\CCCCCCCC(=O)OC(CCCCCCCC)C(CCCCCCCC(=O)OCC(=O)[C@@]1(O)[C@H](C)C[C@H]2[C@@H]3CCC4=CC(=O)C=C[C@]4(C)[C@@]3(F)[C@@H](O)C[C@@]21C)OC(=O)CCCCCCC/C=C\C/C=C\CCCCC (stereo partly drawn) | 0.082
2. CCCCCCCCC(OC(=O)CCCCC)C(CCCCCCCC(=O)OCC(=O)[C@@]1(O)[C@H](C)C[C@H]2[C@@H]3CCC4=CC(=O)C=C[C@]4(C)[C@@]3(F)[C@@H](O)C[C@@]21C)OC(=O)CCCCC (stereo partly drawn) | 0.064

We next turn to a different compound, shown below.
Exercise: Which measured PdI value corresponds to "CCCCC/C=C\C/C=C\CCCCCCCC(=O)O[C@@H](C/C=C\CCCCCCCCOC(=O)c1ccccc1OC(C)=O)CCCCCC" ?
Key: 0.061

Data origin: patent US20220226480A1
